Cited source for all entries: the Immune Epitope Database (IEDB)

biological target: HLA-B*44:03; assay: IEDB peptide-MHC binding, purified MHC/competitive/radioactivity; filed as Kd, often an IC50 or EC50 that approximates it; bounds were set here for any values at or beyond the usual limits of such assays; conditions: source organism: Mammarenavirus choriomeningitidis
readout.label: Kd (nM)
// units = nM; emit number, no label

Data request, read-out Kd, for AELLPDTTYL
1210

###

target: HLA-A*31:01; test: IEDB peptide-MHC binding, purified MHC/competitive/radioactivity; filed as Kd, often an IC50 or EC50 that approximates it; bounds were set here for any values at or beyond the usual limits of such assays; conditions: source organism: Mammarenavirus machupoense
readout.label: pKd
FYI, pKd means -log10 of a concentration in mol per litre.

# annotated cases, reported pKd shown
# residues, reported.result
measured = [
    ("SSFDYCGMDH", 4.97),
    ("SIQKNTIFK", 5.72),
    ("LNNSFYYMK", 7.58),
]

Shifting focus to the sequence that follows.
Data request, read-out pKd, for STSLSEEFFH
4.83

###

target: HLA-A*31:01; assay: IEDB peptide-MHC binding, purified MHC/direct/fluorescence; filed as Kd, often an IC50 or EC50 that approximates it; bounds were set here for any values at or beyond the usual limits of such assays; conditions: source organism: Pseudomonas aeruginosa
readout.label: Kd (nM)
// units = nM; emit number, no label

Data request, read-out Kd, for RDYRTISPR
46

###

target: HLA-A*03:01; experiment: IEDB peptide-MHC binding, purified MHC/competitive/fluorescence; filed as Kd, often an IC50 or EC50 that approximates it; bounds were set here for any values at or beyond the usual limits of such assays; conditions: source organism: Escherichia coli
readout.label: pKd
FYI, pKd means -log10 of a concentration in mol per litre.

Return pKd measured with HLA-A*03:01 given this sequence: ALRGVAVGR
8.01

###

biological target: HLA-C*15:02; experiment: IEDB peptide-MHC binding, purified MHC/direct/fluorescence; filed as Kd, often an IC50 or EC50 that approximates it; bounds were set here for any values at or beyond the usual limits of such assays; settings: source organism: Rickettsia akari str. Hartford
readout.label: Kd

Data request, read-out Kd, for FTARIIIFS
≥ 20 µM

###

molecular target: HLA-A*24:03; assay: IEDB peptide-MHC binding, purified MHC/direct/fluorescence; filed as Kd, often an IC50 or EC50 that approximates it; bounds were set here for any values at or beyond the usual limits of such assays; settings: source organism: Salmonella enterica subsp. enterica serovar Typhimurium str. LT2
pKd: −log10 of the molar value.
readout.label: pKd

Data request, read-out pKd, for FKYDSTKPL
≤ 4.70

###

target: HLA-A*24:02; assay: IEDB peptide-MHC binding, purified MHC/competitive/fluorescence; bounds were set here for any values at or beyond the usual limits of such assays; conditions: source organism: Sudan ebolavirus
readout.label: pIC50
FYI, pIC50 means -log10 of a concentration in mol per litre.

# annotated cases, reported pIC50 shown
# residues, readout.label, reported.result
data = [
    ("QLKSVGLNL", "pIC50", 4.61),
    ("IGEWAFWEN", "pIC50", 4.23),
]

Data request, read-out pIC50, for MEGLSLLQL
4.65

###

target: HLA-B*58:01; experiment: IEDB peptide-MHC binding, purified MHC/direct/fluorescence; filed as Kd, often an IC50 or EC50 that approximates it; bounds were set here for any values at or beyond the usual limits of such assays; details: source organism: Variola virus
readout.label: Kd (nM)
// units = nM; emit number, no label

Data request, read-out Kd, for KVFDKSLLY
5
